- studyTarget: HIS-KRAS (G12V) (Homo sapiens, UniProt P01116, G12V)
- Sequence (P01116 1-188 isoform P01116-2 G12V): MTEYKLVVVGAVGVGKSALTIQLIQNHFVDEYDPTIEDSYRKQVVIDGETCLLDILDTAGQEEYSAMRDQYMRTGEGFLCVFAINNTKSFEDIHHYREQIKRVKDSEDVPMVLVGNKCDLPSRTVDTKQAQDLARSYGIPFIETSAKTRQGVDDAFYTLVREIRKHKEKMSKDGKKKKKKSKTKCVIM
- assayExplanation: KRas G12V binding assay (TR-FRET, SOS1-mediated BODIPY FL GTP nucleotide exchange)
- conditionSummary: GDP-loaded HIS-KRAS (G12V) 3 nM, 1 hour pre-incubation with compound, 4 hours with SOS1 ExD and BODIPY FL GTP at 25° C
pIC50: −log10 of the molar value.

sampleSmiles	pIC50
C#Cc1c(F)ccc2cc(O)cc(-c3ncc4c(N5C[C@H]6CC[C@@H](C5)N6C(=O)C=C)nc(OC[C@@H]5CCCN5C)nc4c3F)c12	9.42
C#Cc1c(F)ccc2cc(O)cc(-c3ncc4c(NCC5(N(C)C(=O)C=C)CCCC5)nc(OCC56CCCN5CCC6)nc4c3F)c12	8.46
C#Cc1c(F)ccc2cc(O)cc(-c3ncc4c(NCC5(N(C)C(=O)C=C)CCC5)nc(OCC56CCCN5CCC6)nc4c3F)c12	8.29
